biological target: T1, CD71 apical domain (human, UniProt P02786 189-383, limits assumed); experiment: solution ELISA screen, signal ratio to HSA control
T1 construct: domain: apical domain
T1 sequence (P02786 189-383 limits assumed): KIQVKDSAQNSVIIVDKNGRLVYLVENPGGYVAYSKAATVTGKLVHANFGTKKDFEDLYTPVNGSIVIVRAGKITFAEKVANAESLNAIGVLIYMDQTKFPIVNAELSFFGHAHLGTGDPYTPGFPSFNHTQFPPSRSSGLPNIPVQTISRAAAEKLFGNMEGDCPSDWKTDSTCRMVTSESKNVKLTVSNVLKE
property_name: apical domain:HSA (ratio)
Output spec: scalar in ratio, unitless text.

Example cases with answers are listed next.
| binder | measured_result |
| --- | --- |
| SEQ ID NO 241 (designed binder, not shown: small tags and cut ends) MLPAPKNLVVSRVTEDSARLSWTAPDAAFDSFFIGYLEPQPPGEAIHLGVPGSERSYDLTGLKPGTEYNVTIQGVKGGFPSIPLFASFTT | 190 |
| SEQ ID NO 221 (designed binder, not shown: small tags and cut ends) MLPAPKNLVVSRVTEDSARLSWTAPDAAFDSFFIGYLEPQPPGEAIFLDVPGSERSYDLTGLKPGTEYNVTIQGVKGGFPSPLTAFFTT | 0.5 |
| SEQ ID NO 245 (designed binder, not shown: small tags and cut ends) MLPAPKNLVVSRVTEDSARLSWTAPDAAFDSFYIAYAEPRPDGEAIALWVPGSERSYDLTGLKPGTEYSVLIHGVKGGLLSSPLVASFTT | 259 |
| SEQ ID NO 226 (designed binder, not shown: small tags and cut ends) MLPAPKNLVVSRVTEDSARLSWTAPDAAFDSFYIAYAEPRPDGEAIGLHVPGSERSYDLTGLKPGTEYSVLIHGVKGGLLSSPLTASFTT | 400 |

Query binder follows.
Challenge: Could you tell me which apical domain:HSA is on file for SEQ ID NO 249 (designed binder, not shown: small tags and cut ends) MLPAPKNLVVSRVTEDSARLSWTAPDAAFDSFYIAYAEPRPDGEAIVLEVPGSERSYDLTGLKPGTEYSVLIHGVKGGLLSSPLHANFTT ?
Response given: 308
